target: CCR9 receptor (Homo sapiens, UniProt P51686); assay: Calcium mobilization (Ca FLIPR) assay, antagonist mode vs TECK; format: cell-based; conditions: LipE = pIC50-clogD
Sequence (P51686 whole entry): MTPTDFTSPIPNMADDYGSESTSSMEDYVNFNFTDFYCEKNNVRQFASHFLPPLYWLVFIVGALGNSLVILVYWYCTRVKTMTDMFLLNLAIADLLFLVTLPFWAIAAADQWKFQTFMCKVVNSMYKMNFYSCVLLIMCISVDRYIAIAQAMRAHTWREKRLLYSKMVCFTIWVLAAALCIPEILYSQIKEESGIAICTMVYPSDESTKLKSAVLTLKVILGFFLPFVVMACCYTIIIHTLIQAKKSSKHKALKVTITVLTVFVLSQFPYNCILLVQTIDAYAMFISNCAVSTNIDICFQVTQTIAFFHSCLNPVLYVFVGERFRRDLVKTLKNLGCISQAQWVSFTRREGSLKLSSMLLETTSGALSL
Measurement label: LipE

Solved cases below.
> print(dat)
                                   compound  measurement
1  CC(C)Cc1nc2ncnn2c(O)c1Cc1ccc(C(C)(C)C)cc1 [Compound 24]          3.9
2  CCc1nc2nc(C)nn2c(O)c1Cc1ccc(C(C)(C)C)cc1 [Compound 13]          4.4
3  Cc1nc2ncnn2c(O)c1Cc1ccc(C(C)(C)C)cc1 [Compound 11]          4.4
4  CC(C)(C)c1ccc(Cc2c(-c3ccoc3)nc3ncnn3c2O)cc1 [Compound 30]          5.3
5  Cc1nc2nc(C(F)(F)F)nn2c(O)c1Cc1ccc(N2CC(C)OC(C)C2)c(F)c1 (stereo not drawn) [Compound 33]            3
6  CCOc1nc2ncnn2c(O)c1Cc1ccc(C(C)(C)C)cc1 [Compound 25]          4.8
7  CCc1nc2n[nH]c(=O)n2c(O)c1Cc1ccc(C(C)(C)C)cc1 [Compound 8]          5.5

P. CCc1nc2ncnn2c(O)c1Cc1ccc(C(C)(C)C#N)cc1 [Compound 37]
Q. Cc1nc2nc(C(F)(F)F)nn2c(O)c1Cc1ccc(C2(F)CCOCC2)cc1 [Compound 34]
Problem: Of the pair P and Q , name the member with the lesser recorded LipE. Use the label to indicate which entry you chose.
Result: Q
(Q: 3.7, P: 5.6)
